Listed here: items and their measured T/C.
Test system: L1210 leukemia ip in BDF1 mice, survival T/C
Test: NCI In Vivo Anticancer Drug Screen. Data for tumor model L1210 Leukemia (intraperitoneal) in B6D2F1 (BDF1) mice
Conditions: endpoint: mean survival time; dose: 400.0 mg/kg/injection; schedule: Q04DX003 (ip); vehicle: Klucel (hydroxypropylcellulose) (HPC); higher = longer survival
Inconclusive results and toxic doses are left out.

Req: // fetch L1210 leukemia ip in BDF1 mice, survival T/C T/C for `CCOC(=O)C(C(=O)OCC)=C(C#N)c1c[nH]c2ccccc12`
Resp: 96 % of control

Req: // fetch L1210 leukemia ip in BDF1 mice, survival T/C T/C for `O/N=C1/CCCC/C1=C/C=C/c1ccccc1`
Resp: 93 % of control

Req: // fetch L1210 leukemia ip in BDF1 mice, survival T/C T/C for c1ccc(NC2C(=C(c3ccccc3)c3ccccc3)N3CCC2CC3)cc1 (stereo unspecified)
Resp: 95 % of control

Req: // fetch L1210 leukemia ip in BDF1 mice, survival T/C T/C for `CN(C)C(=O)Sc1ccc([N+](=O)[O-])cc1Cl`
Resp: 101 % of control

Req: // fetch L1210 leukemia ip in BDF1 mice, survival T/C T/C for `ClCCCN1Cc2ccccc2CCc2ccccc2C1`
Resp: 107 % of control

Req: // fetch L1210 leukemia ip in BDF1 mice, survival T/C T/C for `CCCCCCCCOC(=O)c1ccccc1C(=O)OCCCCCCCC`
Resp: 92 % of control

---

System: L1210 leukemia ip in BDF1 mice, survival T/C
Assay: NCI In Vivo Anticancer Drug Screen. Data for tumor model L1210 Leukemia (intraperitoneal) in B6D2F1 (BDF1) mice
Conditions: endpoint: mean survival time; dose: 100.0 mg/kg/injection; schedule: Q04DX002 (ip); vehicle: saline with Tween-80; higher = longer survival
Toxic doses and inconclusive results are not listed.
Listed here: items and their measured T/C.

- molecule: "Nn1c(Cc2ccccc2)nnc1Cc1ccccc1"
  T/C: "104 % of control"
- molecule: "CCOC(=O)c1ccc(N(CC(O)CN=[N+]=[N-])S(=O)(=O)c2ccc(C)cc2)cc1 (configuration not stated)"
  T/C: "98 % of control"

Req: // fetch L1210 leukemia ip in BDF1 mice, survival T/C T/C for CN(C(=O)c1ccc(Cl)c(Cl)c1)C(c1ccco1)P(=O)(c1ccccc1)c1ccccc1 (configuration not stated)
Resp: 96 % of control

Req: // fetch L1210 leukemia ip in BDF1 mice, survival T/C T/C for `CC(=O)CCP(C)(=O)O`
Resp: 95 % of control

Req: // fetch L1210 leukemia ip in BDF1 mice, survival T/C T/C for `CCOC(=O)c1c(/N=C/c2cc(Br)cc(Br)c2O)sc2c1CCCC2`
Resp: 91 % of control

Req: // fetch L1210 leukemia ip in BDF1 mice, survival T/C T/C for `O=C1c2ccccc2C(=O)N1CNc1ccccc1Cl`
Resp: 98 % of control

Req: // fetch L1210 leukemia ip in BDF1 mice, survival T/C T/C for `O=C(NC(=S)c1cccc2ccccc12)Nc1ccc(Cl)cc1`
Resp: 97 % of control

---

Tested on: L1210 leukemia ip in BDF1 mice, survival T/C
Test: NCI In Vivo Anticancer Drug Screen. Data for tumor model L1210 Leukemia (intraperitoneal) in B6D2F1 (BDF1) mice
Settings: endpoint: mean survival time; dose: 400.0 mg/kg/injection; schedule: Q04DX003 (ip); vehicle: saline; higher = longer survival
Inconclusive results and toxic doses are left out.
observed property: T/C

Below are worked cases with known answers.
- smiles record: "C=CC(C)(C)C(=C)C"
  T/C: "101 % of control"
- smiles record: "COc1ccccc1[P+](CO)(c1ccccc1OC)c1ccccc1OC"
  T/C: "97 % of control"
- smiles record: "CCOC(=O)NC(=O)CC"
  T/C: "98 % of control"

Now examine the next entry.
Req: Please give the measured T/C for this compound: `S=C([S-])N1CCN(c2ccccc2)CC1.S=C([S-])N1CCN(c2ccccc2)CC1.[Zn]`
Resp: 90 % of control

---

Listed here: items and their measured T/C.
Test system: L1210 leukemia ip in BDF1 mice, survival T/C
Assay: NCI In Vivo Anticancer Drug Screen. Data for tumor model L1210 Leukemia (intraperitoneal) in B6D2F1 (BDF1) mice
Conditions: endpoint: mean survival time; dose: 100.0 mg/kg/injection; schedule: Q01DX009 (ip); vehicle: Klucel (hydroxypropylcellulose) (HPC); higher = longer survival
Toxic doses and inconclusive results are not listed.

Below are worked cases with known answers.
- compound: "O=C(O)/C=C\\C(=O)Nc1ccc2c(c1)OCO2"
  T/C: "98 % of control"
- compound: "O=c1ccc(=O)n(-c2ccccc2)[nH]1"
  T/C: "95 % of control"

Now examine the next entry.
Req: Please give the measured T/C for this compound: `CCc1ccc(NC(=O)C(c2ccccc2)c2ccccc2)cc1`
Resp: 92 % of control

---

System: L1210 leukemia ip in BDF1 mice, survival T/C
Test: NCI In Vivo Anticancer Drug Screen. Data for tumor model L1210 Leukemia (intraperitoneal) in B6D2F1 (BDF1) mice
Conditions: endpoint: mean survival time; dose: 400.0 mg/kg/injection; schedule: Q01DX009 (ip); vehicle: saline; higher = longer survival
Inconclusive results and toxic doses are left out.
observed property: T/C

Below are worked cases with known answers.
- molecule: "NC(Cc1cc(I)c(O)c(I)c1)C(=O)O (configuration not stated)"
  T/C: "95 % of control"
- molecule: "CC(=O)Nc1ccc2c3c(ccc([N+](=O)[O-])c13)CC2"
  T/C: "108 % of control"
- molecule: "CC(=O)NCC(C)(C)c1ccccc1"
  T/C: "102 % of control"
- molecule: "Cn1c(=O)c2c(ncn2CCO)n(C)c1=O"
  T/C: "105 % of control"
- molecule: "Cc1ccc(S(=O)(=O)N2CCC(Br)(Br)C(=O)c3ccccc32)cc1"
  T/C: "102 % of control"
- molecule: "O=S(=O)(O)CCN(CCO)CCO"
  T/C: "109 % of control"

Now examine the next entry.
Req: // fetch L1210 leukemia ip in BDF1 mice, survival T/C T/C for `c1ccc(CC(Cc2ccccc2)=[N+]2CCCC2)cc1`
Resp: 101 % of control

---

Tested on: L1210 leukemia ip in BDF1 mice, survival T/C
Experiment: NCI In Vivo Anticancer Drug Screen. Data for tumor model L1210 Leukemia (intraperitoneal) in B6D2F1 (BDF1) mice
Conditions: endpoint: mean survival time; dose: 400.0 mg/kg/injection; schedule: Q01DX001 (ip); vehicle: saline; higher = longer survival
Toxic doses and inconclusive results are not listed.
observed property: T/C

Below are worked cases with known answers.
- compound: "C=CCc1ccc(OC(C)=O)c(OC)c1"
  T/C: "108 % of control"
- compound: "Cc1cc(Br)c(C)cc1Br"
  T/C: "103 % of control"

Now examine the next entry.
Req: Please give the measured T/C for this compound: CC(C)C1C(C(N)=O)C(=O)OC1(C)C (stereo not drawn)
Resp: 96 % of control

---

Tested on: L1210 leukemia ip in BDF1 mice, survival T/C
Assay: NCI In Vivo Anticancer Drug Screen. Data for tumor model L1210 Leukemia (intraperitoneal) in B6D2F1 (BDF1) mice
Conditions: endpoint: mean survival time; dose: 25.0 mg/kg/injection; schedule: Q04DX003 (ip); vehicle: saline; higher = longer survival
Toxic doses and inconclusive results are not listed.
Listed here: items and their measured T/C.

- compound: "CCC(C)C(CN)(CCN(C)C)Cc1cccc2ccccc12 (stereo unspecified)"
  T/C: "96 % of control"
- compound: "N#CSCC(=O)c1ccccc1"
  T/C: "106 % of control"
- compound: "CCOC(=O)c1ccc(NCC(C)(C)N(C)C)cc1"
  T/C: "98 % of control"

Req: // fetch L1210 leukemia ip in BDF1 mice, survival T/C T/C for `CC1(C)CC(N=Cc2ccccc2O)CC(C)(C)N1O.CC1(C)CC(N=Cc2ccccc2O)CC(C)(C)N1O.[Cu]`
Resp: 101 % of control

Req: // fetch L1210 leukemia ip in BDF1 mice, survival T/C T/C for `CC(C)(C)NCCC(=O)c1ccccc1`
Resp: 102 % of control

Req: // fetch L1210 leukemia ip in BDF1 mice, survival T/C T/C for `CCN(CC)CCOc1ccccc1Br`
Resp: 96 % of control

---

Tested on: L1210 leukemia ip in BDF1 mice, survival T/C
Assay: NCI In Vivo Anticancer Drug Screen. Data for tumor model L1210 Leukemia (intraperitoneal) in B6D2F1 (BDF1) mice
Settings: endpoint: mean survival time; dose: 400.0 mg/kg/injection; schedule: Q04DX003 (ip); vehicle: Klucel (hydroxypropylcellulose) (HPC); higher = longer survival
Protocol: The antitumor activity of compounds was measured in mice bearing transplantable tumors. Survival or tumor size were measured and the results are expressed as the measurement made in the treated group (T) divided by the measurement made in the vehicle treated control group (C). The tumor model used in this assay is L1210 Leukemia (intraperitoneal) in B6D2F1 (BDF1) mice
Toxic doses and inconclusive results are not listed.
Listed here: items and their measured T/C.

- compound: "CS(=O)(=O)OCC1CCCO1 (centres undefined)"
  value observed: "104 % of control"

Req: Please give the measured T/C for this compound: COC(=O)CNC(=O)C(CSCc1ccccc1)NC(=O)OCc1ccccc1 (centres undefined)
Resp: 99 % of control

Req: Please give the measured T/C for this compound: `Nc1ccc2nc(NCCO)c3ccccc3c2c1`
Resp: 104 % of control

Req: Please give the measured T/C for this compound: `CC(C)COC(=O)c1ccccc1O`
Resp: 89 % of control

Req: Please give the measured T/C for this compound: `COC(=O)c1c(C(=O)OC)c2c(-c3ccccc3)cc3cccc1n32`
Resp: 94 % of control
